We begin with pIC50 values for Apoptosis regulator Bcl-2 (Homo sapiens, UniProt P10415), as collected from the published literature.
pIC50: −log10 of the molar value.

Input line: Dear colleague, I am looking for the recorded pIC50 of the following compound: O=C(NS(=O)(=O)c1ccc(NCC2CCOCC2)c([N+](=O)[O-])c1)c1ccc(N2CCN(CC(O)(c3ccccc3)c3ccc(F)c(F)c3)CC2)cc1Oc1cnc2[nH]ccc2c1 (stereo not shown)
Output line: < 7.30

Input line: Try this compound next: "CCCCN(CCCC)C(=O)c1cc(C)n(-c2ccc(NC(=O)Cc3cccc(Cl)c3)cc2C(=O)N2Cc3ccccc3C[C@H]2CO)n1"
Output line: 7.29 to 7.30

Input line: Try this compound next: "CCCCN(CCCC)C(=O)c1cc(C)n(-c2ccc(NC(=O)c3ccc4c(c3)N=S=N4)cc2C(=O)N2Cc3ccccc3C[C@H]2CO)n1"
Output line: 5.98 to 5.99

Input line: Try this compound next: "CCCCN(CCCC)C(=O)c1cc(C)n(-c2ccc(NC(=O)COC3CCCCC3)cc2C(=O)N2Cc3ccccc3C[C@H]2CO)n1"
Output line: 6.75

Input line: Try this compound next: "CS(=O)(=O)NC(=O)c1cccc(CN(C(=O)c2cc(-c3cc4c(cc3C(=O)N3Cc5ccccc5C[C@H]3CN3CCOCC3)OCO4)n3c2CCCC3)c2ccc(O)cc2)c1"
Output line: 8.00 to 8.30

* * *

pIC50: −log10 of the molar value.
We begin with pIC50 values for Apoptosis regulator Bcl-2 (Homo sapiens, UniProt P10415), as collected from the published literature.

Example cases with answers are listed next.
CCCCN(CCCC)C(=O)c1cc(C)n(-c2ccc(NC(=O)C(C)(C)CC(=O)O)cc2C(=O)N2Cc3ccccc3C[C@H]2CO)n1    6.91 to 6.98
CCN1CCN(CC[C@H](CSc2ccccc2)Nc2ccc(S(=O)(=O)Nc3ncnc4c3CCN(C3CCN(Cc5ccccc5-c5ccc(Cl)cc5)CC3)C4)cc2S(=O)(=O)C(F)(F)F)CC1    7.29
CN(C)CC[C@H](COCc1ccccc1)Nc1ccc(S(=O)(=O)Nc2ncnc3c2CCN(C2CCN(Cc4ccccc4-c4ccc(Cl)cc4)CC2)C3)cc1S(=O)(=O)C(F)(F)F    6.85

Input line: Dear colleague, I am looking for the recorded pIC50 of the following compound: "CC(C)c1cc(-c2ccc(C(C)(C)C)cc2)c(O)c(O)c1O"
Output line: < 6.00

* * *

pIC50: −log10 of the molar value.
We begin with pIC50 values for Apoptosis regulator Bcl-2 (Homo sapiens, UniProt P10415), as collected from the published literature.

CN(CCc1ccccc1)S(=O)(=O)c1cc(C(=O)N2CCc3ccc(S(=O)(=O)NCCc4ccccc4)cc3C2)c(O)c(O)c1O    ≥ 6.00
CCc1cc(C(=O)Nc2cc(S(=O)(=O)c3ccc(Cl)cc3)ccc2Cl)c(O)c(O)c1O    ≥ 6.00
CCCCN(CCCC)C(=O)c1cc(C)n(-c2ccc(NC(=O)c3ccc(SC(F)(F)F)cc3)cc2C(=O)N2Cc3ccccc3C[C@H]2CO)n1    5.20 to 5.24
CCCCN(CCCC)C(=O)c1cc(C)n(-c2ccc(NC(=O)c3sccc3C)cc2C(=O)N2Cc3ccccc3C[C@H]2CO)n1    5.84 to 5.85
O=C(NS(=O)(=O)c1ccc(NCC2CCOCC2)c([N+](=O)[O-])c1)c1ccc(N2CCN(C[C@@H]3Cc4cc(F)ccc4CN3C(=O)C3CC3)CC2)cc1Oc1cnc2[nH]ccc2c1    7.30 to 8.00
CCCCN(CCCC)C(=O)c1cc(C)n(-c2ccc(NC(=O)c3ccc4c(C)c(C)[nH]c4c3)cc2C(=O)N2Cc3ccccc3C[C@H]2CO)n1    6.20 to 6.21

Input line: Dear colleague, I am looking for the recorded pIC50 of the following compound: "CC(C)(C)c1ccc(CCc2cc(O)c(O)c(C(=O)Nc3ccc(S(=O)(=O)N4CCN(c5ncccn5)CC4)cc3)c2)cc1"
Output line: ≥ 6.00

* * *

We begin with IC50 values for Apoptosis regulator Bcl-2 (Homo sapiens), as collected from the published literature.

CC(C)c1cc(C(=O)Cc2ccc3ccccc3c2)c(O)c(O)c1O    > 1000 nM
Cc1ccccc1NC(=O)c1cc(CCc2ccccc2)c(O)c(O)c1O    > 1000 nM
CCCCN(CCCC)C(=O)c1cc(C)n(-c2ccc(NC(=O)OCC(C)C)cc2C(=O)N2Cc3ccccc3C[C@H]2CO)n1    394 to 452 nM
CCCCN(CCCC)C(=O)c1cc(C)n(-c2ccc(NC(=O)COc3cccc(OC)c3)cc2C(=O)N2Cc3ccccc3C[C@H]2CO)n1    2620 to 3490 nM
CCCCN(CCCC)C(=O)c1cc(C)n(-c2ccc(NC(=O)c3nn(C)c4ncccc34)cc2C(=O)N2Cc3ccccc3C[C@H]2CO)n1    499 to 556 nM

Input line: Dear colleague, I am looking for the recorded IC50 of the following molecule: "O=S(=O)(Nc1nnc2n1CCN(C1CCN(Cc3ccccc3-c3ccc(Cl)cc3)CC1)C2)c1ccc(N[C@H](CCN2CCOCC2)CSc2ccccc2)c(S(=O)(=O)C(F)(F)F)c1"
Output line: 405 nM

Input line: Try this molecule next: "CCCCN(CCCC)C(=O)c1cc(C)n(-c2ccc(NC(=O)Cc3cccc(OC)c3)cc2C(=O)N2Cc3ccccc3C[C@H]2CO)n1"
Output line: 91.3 to 101 nM

Input line: Try this molecule next: "CCCCN(CCCC)C(=O)c1cc(C)n(-c2ccc(NC(=O)OCC)cc2C(=O)N2Cc3ccccc3C[C@H]2CO)n1"
Output line: 550 to 557 nM

Input line: Try this molecule next: "[2H]C1(N2CCc3c(ncnc3NS(=O)(=O)c3ccc(N[C@H](CCN4CCN(C)CC4)CSc4ccccc4F)c(S(=O)(=O)C(F)(F)F)c3)C2)CCN(CC2=C(c3ccc(Cl)cc3)CC(C)(C)CC2)CC1"
Output line: 28 nM

Input line: Try this molecule next: COCCNc1ccc(S(=O)(=O)NC(=O)c2ccc(N3CCC(CN4CCCCC4c4ccc(Cl)cc4)CC3)cc2Oc2cnc3[nH]ccc3c2)cc1[N+](=O)[O-] (stereo not drawn)
Output line: > 50 nM

Input line: Try this molecule next: "CC(C)(C)OP(=O)(O)OCO[C@@H](c1ccccc1-c1ccc(Cl)cc1)C1CCN(c2ccc(C(=O)NS(=O)(=O)c3ccc(N[C@H](CCN4CCOCC4)CSc4ccccc4)c(S(=O)(=O)C(F)(F)F)c3)cc2)CC1"
Output line: 4 nM

Input line: Try this molecule next: CCCCN(CCCC)C(=O)c1cc(C)n(-c2ccc(NC(=O)CC(C)S(=O)(=O)c3ccc(Cl)cc3)cc2C(=O)N2Cc3ccccc3C[C@H]2CO)n1 (stereo partly drawn)
Output line: 156 to 210 nM

Input line: Try this molecule next: "CCCCN(CCCC)C(=O)c1cc(C)n(-c2ccc(NC(=O)COc3ccc(OC)cc3)cc2C(=O)N2Cc3ccccc3C[C@H]2CO)n1"
Output line: 8620 to 11900 nM

Input line: Try this molecule next: "CN(C)CC[C@H](CSc1ccccc1)Nc1ccc(S(=O)(=O)Nc2ncnc3c2CCN(C2CCN(Cc4c(F)cccc4-c4ccc(Cl)cc4)CC2)C3)cc1S(=O)(=O)C(F)(F)F"
Output line: 30 nM

Input line: Try this molecule next: "CN(C)CC[C@H](CSc1ccccc1)Nc1ccc(S(=O)(=O)Nc2ncnc3c2CCN(C2CCN(Cc4ccc(F)cc4-c4ccc(Cl)cc4)CC2)C3)cc1S(=O)(=O)C(F)(F)F"
Output line: 35 nM

Input line: Try this molecule next: CCCCN(CCCC)C(=O)c1cc(C)n(-c2ccc(NC(=O)C(Cc3ccccc3)C(=O)O)cc2C(=O)N2Cc3ccccc3C[C@H]2CO)n1 (stereo partly drawn)
Output line: 63.4 to 72.2 nM

Input line: Try this molecule next: "CCCCN(CCCC)C(=O)c1cc(C)n(-c2ccc(NC(=O)Cc3nc(-c4ccccc4)oc3C)cc2C(=O)N2Cc3ccccc3C[C@H]2CO)n1"
Output line: 106 to 110 nM

Input line: Try this molecule next: "CCCCN(CCCC)C(=O)c1cc(C)n(-c2ccc(NC(=O)c3cc(S(N)(=O)=O)ccc3OC)cc2C(=O)N2Cc3ccccc3C[C@H]2CO)n1"
Output line: 93.5 to 99.9 nM

* * *

We begin with IC50 values for Apoptosis regulator Bcl-2 (Homo sapiens, UniProt P10415), as collected from the published literature.
experimental.readout: IC50 (nM)

A: CN(C)CC[C@H](CSc1ccccc1Cl)Nc1ccc(S(=O)(=O)Nc2ncnc3c2CCN(C2CCN(Cc4ccccc4-c4ccc(Cl)cc4)CC2)C3)cc1S(=O)(=O)C(F)(F)F
B: CCCCN(CCCC)C(=O)c1cc(C)n(-c2ccc(NC(=O)c3cn4ccsc4n3)cc2C(=O)N2Cc3ccccc3C[C@H]2CO)n1
C: CCCCN(C(=O)c1nn(-c2ccc(C(=O)NS(=O)(=O)c3ccc4ccccc4c3)cc2C(=O)N2CCc3ccccc3C2)c(C)c1Cl)c1cccc(-c2cccc(Cl)c2)c1
Input line: Rank the listed molecules, smallest IC50 first and largest last. List each label, following the requested order.
Output line: A, C, B
(A: 32 nM, C: 50 nM, B: 268 nM)
